Test system: MS2 coat protein
Experiment: apparent KD of MS2 coat protein; designed switch direction (-1 OFF switch, 1 ON switch): -1; higher = weaker reporter binding
Details: input ligand: none
Entries and their apparent KD of MS2 coat protein values follow.
Measure: apparent KD of MS2 coat protein (nM)

* AUCCCUUGAGUAAGGAUAUGGCCAGGGAGGUCUGGCCAGAAGGUACAUGAGGAUCACCCAUGUAGGUUGUCGCA [Eternabot (L2) Solution 44] (Eterna round: R97, puzzle: Brourd's mod of Exclusion 4) | 20.6
* CUUUUGUGAGGAUAUUAAUAGUAAGUAAAUAAAAUUAUUACUAAGAAGGCACAUGAGGAUCACCCAUGUUCCUC [EX4 #82] (Eterna round: R97, puzzle: Exclusion 4) | 63.4
* UUAAUGAUUGUGAGGAUAUCGGAUAGAUAGAUAUUUGAGAAGGUACAUGAGGAUCACCCAUGUGUGAUUAGAGA [Brourd's EX4 #67] (Eterna round: R97, puzzle: Brourd's mod of Exclusion 4) | 111
* GUUAUCGCAGGAUAUUAAUACUUGUACAUGAGGAUCACCCAUGUUUAUUGGGAUUAAGAAUAAGAAGGGCGAUGAA [JR_Ex5_Sub003] (Eterna round: R97, puzzle: Exclusion 5) | 27.8
* CCUAUGUUAGGAUAUCUAGUAAGAGGCCCAUAGGGCCGUGCAGAGAAGGGACAUGAGGAUCACCCAUGUGUCAC [Eternabot (L1) Solution 86] (Eterna round: R97, puzzle: Exclusion 4) | 34.6
* AAACCCUGAGGAUAUGCAUAACAACAAAGCCUCACGUGCCAACAUGAGGAUCACCCAUGUAGAAGGCAGGCCAA [Mod R3 Insanara 15 - Jieux - Exclusion 2] (Eterna round: R97, puzzle: Exclusion 2) | 15.3
* AAGAAACAUGAGGAUCACCCAUGUGAGGAUAUGCAAGAAAGAAAGAAAGAAAGAAGAAGCAGAAGGCACAAAGG [Gaius Turranius] (Eterna round: R96, puzzle: Exclusion 1) | 50.7
* AAAUUGGUAGAGGAUAUCGUACAGGAAACGAUGCGAGAAGGCUGCACAUGAGGAUCACCCAUGUUCAGUUGCGA [EX6 #41] (Eterna round: R97, puzzle: Exclusion 6) | 17.6
* CACAAAGUAGGAUAUAGAAUAAAAGACAUGAGGAUCACCCAUGUGUCGUUCAAGGUGAACCUAGAAGGACUGAAAA [EX5 A.28] (Eterna round: R97, puzzle: Exclusion 5) | 116
* GGAUGCUGAGUAAGGAUAUGGUAGGCUUGCGCCUACCAGAAGGUACAUGAGGAUCACCCAUGUUAGCAUCCAGU [eternacac ex4r4 #3] (Eterna round: R97, puzzle: Brourd's mod of Exclusion 4) | 16.2

====

Tested on: K4 kissing-loop RNA reporter;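 also: bound reporter read as fluorescence of individual clusters on recovered sequencing chips by microscopy, with normalized cluster intensities fitted with a binding model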
Test: apparent KD of K4 kissing-loop reporter; higher = weaker reporter binding
Settings: Eterna round: R107; input ligand: FMN 200 uM
Measure: apparent KD of K4 kissing-loop reporter (nM)

• UUUAAAUAUAGUGAUGUUAUAUAACAAUGACGAGGACCGGUACGGCCGCCACUCGAGAGAGAUAAUGGUCUUACAAAUGUAAGUU [AstrosSSTryA#9] = 567
• GAAUUGACGAGUGAUGUUCGUCCACAAUACCGAGGACCGGUACGGCCGCCACUCGAGCAAUGUGAAUAGGGUCGCGUUUUGCAGU = 294
• UCGCAUCUCAGAAGGAGCGACAGUGAUUCUGAUAGAAAUCUGAGUGAUGUUCAGAACAGCUGUCAGGUAGGUCGCUGAGAUGCGA [Arg B Ex t8] = 813
• GUGCGCGCGGCGGCCGCCACUCGCAUGAGAGUGAUGUUCUCACCGUGACCGCAAGGUCGCGGUGUGAGGACCGGGCCGGGCUGCG [#2 Same State - Tryptophan B Attempt #25 (HarryS)] = 74.3
• GACUGGAGUGAUGUUCCAUUAACGAUCCUACGAGGACCGGUACGGCCGCCACUCGAAAUGCAGUGAUGUUGCAGCCAGCCGUACU [Exclusion Trptophan A GF 8] = 157
• AGUGUGCAAAAGCACACUCAGUACAAGGACAAGGAUAUCUACUAAUAGAGAAGGUGUCCUUUCCUUAGUGAUGUUAAGGAACUGA [Omei KL FMN A SS D v3] = 205

====

Test system: MS2 coat protein
Experiment: apparent KD of MS2 coat protein; higher = weaker reporter binding
Conditions: Eterna round: R107; input ligand: arginine 13.2 mM
Reported apparent KD of MS2 coat protein is given for each of the following sequences.
Measure: apparent KD of MS2 coat protein (nM)

* UGAUAUGUGGGAAGGAGCGCAUACUUCACAUGAGGAUCACCCAUGUCAAGACGUGAGUCAGUGCAGGUAGGUCGCCUAGUUAUGA [Same State - Arginine B (Freestyle 19)] | 36.8
* GAUAUGGAAACAUGUCAGAUCCUUACCGGUCGAGGACCGGUACGGCCGCCACUCGGAAAUAUUGUACAUGAGGAUCACCCAUGUA [Ex Tryptophan A 18] | 14.1
* AAACAUGAGGAUCACCCAUGUUCUCCUGUCCGAGGACCGGUACGGCCGCCACUCGGUUCUCGGGAGGAUGGUCAAAGACUAUCCA [Omei Trp A SS B v8] | 12
* ACGAUAGGGCAUGAGGAUCACCCAUGUGAUACCAGCCUGGAAACAGGCCCUUGGCAGCAUUAAUACUCCAAUAACCUAUCGAAUA [TheoAX 17 #MicroSwitchBubble #AlternativeMS2] | 91.5
* AUAUGAUCAUACGAUACCAGAAAUGGUAUUCCUUUAUUUCUUACAUGAGGAUCACCCAUGUUCCCUUGGCAGCGUAUGAUCAUAU [ETHB #3] | 125
* UAUCGUCAGACGGCCGCCACUAGAACAUGAGGAUCACCCAUGUAGGCGGCCGAUUCCUCAUGAACUAGGACCGGGUCUGACGAAU [(Trp1)-(Ms2)-(T)'-(M)'-(Trp2)_Design12] | 8.18

====

Tested on: MS2 coat protein
Experiment: apparent KD of MS2 coat protein; designed switch direction (-1 OFF switch, 1 ON switch): -1; higher = weaker reporter binding
Conditions: input ligand: FMN 200 uM
Listed below: apparent KD of MS2 coat protein values for each entry.
Measure: apparent KD of MS2 coat protein (nM)

- UUUCAACAUGAGGAUCACCCAUGUCAGGAUAUCAUUUAGCUCAUACACUUACCAUCAUUGAGAAGGGACAUGCU [Colors] (Eterna round: R97, puzzle: Exclusion 1): 15.7
- GUAUAUGAUGUAGGAUAUACGAGACAUGAGGAUCACCCAUGUGAGGGAAGGAGAAGGAGAAGAGAGUAGAAGGAUAGAGUGUGA [Default title] (Eterna round: R96, puzzle: Exclusion NG 2): 69.3
- UUAUGAGAGCAGGAUAUCUUAUAUUUUUUUUAAAGAGAAGGGCUCACAUGAGGAUCACCCAUGUGGUCCUAGAU [LRO-Excl6-21-mod of 4.86 by jal] (Eterna round: R97, puzzle: Exclusion 6): 234
- ACAUGACUAGGAUAUACAUGAGGAUCACCCAUGUGACCACAAACAUGCUAUAUGGGCAGUAGAAGGAGUUGGAA [Eternabot (L1) Solution 86] (Eterna round: R97, puzzle: Exclusion 3): 82.9
- AGGAUGAGAGGAUAUACAAACGGUCCCACAAUCUCACGGGCACAUGAGGAUCACCCAUGUAGAAGGCUCAUUGG [EX2 B.28] (Eterna round: R97, puzzle: Exclusion 2): 325

====

Item-by-item account of apparent KD of MS2 coat protein
Tested on: MS2 coat protein
Test: apparent KD of MS2 coat protein; designed switch direction (-1 OFF switch, 1 ON switch): -1; higher = weaker reporter binding
Settings: input ligand: FMN 200 uM
Measure: apparent KD of MS2 coat protein (nM)

- CCCUCGGGAGGAUAUGGGUGUUUUUACAUGAGGAUCACCCAUGUAGAGUAAUAUGUGGGUCCAGAAGGCCCAAGGG [-26, -24.7 kcal, 25% A] (Eterna round: R97, puzzle: Exclusion 5): 86.9
- CACAAAGUAGGAUAUAGAAUAAAAGACAUGAGGAUCACCCAUGUGUCGUUCAAGGUGAACCUAGAAGGACUGAAAA [EX5 A.28] (Eterna round: R97, puzzle: Exclusion 5): 45.1
- CCAUACUGUAAGCUUCCCAACAUGAGGAUCACCCAUGUGGACCACGGCUUCGGUCAGCUAACCUGCUCGUCGUUGAU [Eternabot (L2) Solution 31] (Eterna round: R97, puzzle: Sensor, turn-off variant 1): 15.2
- ACAAGAUCGGAAGGAUAUUGUACAUGAGGAUCACCCAUGUAAUAAAUGAGGAUCACGGAUGUAGUCAAGAAGGUCCGGAUAAGA [Ostracism 3 - Jieux - Exclusion NG 2] (Eterna round: R96, puzzle: Exclusion NG 2): 36.9
- GACCUGGCGAAGGAUAUCUGGAGGGAGUACAUCAGAGAAGGUCGCACAUGAGGAUCACCCAUGUUUGCAAUAGC [Eternabot (Original) Solution 22] (Eterna round: R97, puzzle: Exclusion 6): 25.7
